# Method: Tmax in female CD-1 mouse brain at 10 mg/kg, ip measured after 10 to 1440 mins by LC-MS/MS analysis
# Assay type: ADME, organism-based
Measured Property: Tmax (min)

Solved cases (2 shown):
>>> assay_result("COc1ccc(C(=O)C2CC2c2ccc(N3C(=O)[C@@H]4[C@@H]5C=C[C@@H]([C@H]6C[C@@H]56)[C@@H]4C3=O)c(F)c2)cc1Cl (some centres undefined)")
30
>>> assay_result("COc1ccc(C(=O)C2CC2c2ccc(N3C(=O)[C@@H]4[C@@H]5C=C[C@@H]([C@H]6C[C@@H]56)[C@@H]4C3=O)cc2)cc1 (some centres undefined)")
30

I. O=C(COc1cnc(N2C(=O)[C@@H]3[C@@H]4C=C[C@@H]([C@H]5C[C@@H]45)[C@@H]3C2=O)nc1)c1ccc(Cl)c(Cl)c1
II. O=C(COc1ccc(N2C(=O)[C@@H]3[C@@H]4C=C[C@@H]([C@H]5C[C@@H]45)[C@@H]3C2=O)cc1)c1cc(Cl)cc(Cl)c1
Q: Select the item whose Tmax value is smaller, choosing between I and II . Which one? Tell me its label.
Ans: I
(I: 30 min, II: 90 min)
